Gonadotropin-releasing hormone receptor (Rattus norvegicus, UniProt P30969) pKi, compiled from various sources.
Sequence (P30969 whole entry): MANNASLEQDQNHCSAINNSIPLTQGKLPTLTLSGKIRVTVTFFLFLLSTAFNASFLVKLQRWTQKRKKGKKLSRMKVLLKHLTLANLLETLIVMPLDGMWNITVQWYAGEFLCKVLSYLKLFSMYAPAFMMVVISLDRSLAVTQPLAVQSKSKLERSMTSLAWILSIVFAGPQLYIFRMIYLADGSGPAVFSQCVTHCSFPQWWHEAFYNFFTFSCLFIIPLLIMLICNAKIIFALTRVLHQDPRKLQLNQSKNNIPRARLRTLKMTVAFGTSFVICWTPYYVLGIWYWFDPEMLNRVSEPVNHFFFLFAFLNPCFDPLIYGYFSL
Give only the number. pKi is defined as minus log10 of concentration in molar units.

Sample answers from the record:
compound	measurement_name	result_number
CC(=O)N[C@@H]1CC(=O)N[C@@H](C)C(=O)NCC[C@H](C(=O)N[C@@H](CO)C(=O)N[C@@H](Cc2ccc(O)cc2)C(=O)N[C@H](Cc2ccc3ccccc3c2)C(=O)N[C@@H](CC(C)C)C(=O)N[C@@H](CCCN=C(N)N)C(=O)N2CCC[C@H]2C(=O)N[C@H](C)C(N)=O)NC(=O)[C@@H](Cc2ccc(Cl)cc2)NC1=O	pKi	8.74
Cc1cc(C)cc(-c2[nH]c3c(c2[C@H](C)CNCCc2ccc4nn[nH]c4c2)CN(C(=O)Cc2c(F)cccc2C(F)(F)F)CC3)c1	pKi	9.30

Now consider the entry below.
Sample Cc1cc2c(cc1Cc1ccc(C(=O)NCC3CCC(CN)CC3)o1)C(C)(C)CCC2(C)C (stereo not drawn) ; pKi observed: 6.14

----------
Ok so here's the combined literature set: pKi for Gonadotropin-releasing hormone receptor (Rattus norvegicus).
Note on pKi: it is the negative log10 of concentration, concentration in mol/L.

Recorded pKi, per entry:
CC(=O)N[C@H]1CC(=O)NC[C@@H](C(=O)N[C@@H](CO)C(=O)N[C@@H](Cc2ccc(O)cc2)C(=O)N[C@H](Cc2ccc3ccccc3c2)C(=O)N[C@@H](CC(C)C)C(=O)N[C@@H](CCCN=C(N)N)C(=O)N2CCC[C@H]2C(=O)N[C@H](C)C(N)=O)NC(=O)[C@@H](Cc2ccc(Cl)cc2)NC1=O 7.51
Cc1cc2c(cc1Cc1ccc(C(=O)NC[C@H]3CC[C@H](C(N)=O)CC3)o1)C(C)(C)CCC2(C)C 6.57

The measured pKi that "CC(=O)N[C@@H]1CCC(=O)NCC(=O)NCC[C@H](C(=O)N[C@@H](CO)C(=O)N[C@@H](Cc2ccc(O)cc2)C(=O)N[C@H](Cc2ccc3ccccc3c2)C(=O)N[C@@H](CC(C)C)C(=O)N[C@@H](CCCN=C(N)N)C(=O)N2CCC[C@H]2C(=O)N[C@H](C)C(N)=O)NC(=O)[C@@H](Cc2ccc(Cl)cc2)NC1=O" showed for Gonadotropin-releasing hormone receptor (Rattus norvegicus) is 7.69

Bench note, Gonadotropin-releasing hormone receptor (Rattus norvegicus): entry "COc1nc(F)nc(OC)c1NC(=O)c1ccc(Oc2cc3c(cc2C)CCC3(C)C)o1" , its pKi = 7.38

"Cc1cc2c(cc1Cc1ccc(C(=O)NCc3ccc(CN(C)C)cc3)o1)C(C)(C)CCC2(C)C" on Gonadotropin-releasing hormone receptor (Rattus norvegicus) gives pKi = 6.85
